Tested on: MFM-223
experiment.description: normalised response (% of control), CellTox Green; higher = less cell death (100 = DMSO, 0 = benzethonium chloride kill control)
condition.details: incubation time: 72 h
measurement.kind: normalised response (%)
Use % as the unit, but write only the number.

A selection of reference data follows.
compound	target.or.system	scale.unit	normalised response
CC(=O)O[C@]1(C(C)=O)CC[C@H]2[C@@H]3C=C(C)C4=CC(=O)CC[C@]4(C)[C@H]3CC[C@@]21C [Megestrol acetate] (100 nM)	MFM-223	%	99.2
C=CC[C@@H]1/C=C(\C)C[C@H](C)C[C@H](OC)[C@H]2O[C@@](O)(C(=O)C(=O)N3CCCC[C@H]3C(=O)O[C@H](/C(C)=C/[C@@H]3CC[C@@H](O)[C@H](OC)C3)[C@H](C)[C@@H](O)CC1=O)[C@H](C)C[C@@H]2OC [Tacrolimus] (10000 nM)	MFM-223	%	98.3
COc1cccc2cc(-c3nc([C@H]4CC[C@H](C(=O)O)CC4)n4ncnc(N)c34)[nH]c12 [OSI-027] (10000 nM)	MFM-223	%	84
N#CC[C@H](C1CCCC1)n1cc(-c2ncnc3[nH]ccc23)cn1 [Ruxolitinib] (1000 nM)	MFM-223	%	96.2
COc1cccc2c1C(=O)c1c(O)c3c(c(O)c1C2=O)C[C@@](O)(C(=O)CO)C[C@@H]3O[C@H]1C[C@H](N)[C@H](O)[C@H](C)O1 [Doxorubicin] (100 nM)	MFM-223	%	86.3

Continue with the compound presented below.
(Q) Item Nc1ccn([C@@H]2O[C@H](CO)[C@@H](O)[C@@H]2O)c(=O)n1 [Cytarabine] (1000 nM) has what recorded normalised response?
(A) 97.5

* * *

System: HCC1937
condition.details: 72 h
Quick reference for EC50, CellTiter-Glo among some compounds

substance.smiles	measured.result
Cc1c2oc3c(C)ccc(C(=O)N[C@@H]4C(=O)N[C@H](C(C)C)C(=O)N5CCC[C@H]5C(=O)N(C)CC(=O)N(C)[C@@H](C(C)C)C(=O)O[C@@H]4C)c3nc-2c(C(=O)N[C@@H]2C(=O)N[C@H](C(C)C)C(=O)N3CCC[C@H]3C(=O)N(C)CC(=O)N(C)[C@@H](C(C)C)C(=O)O[C@@H]2C)c(N)c1=O	0.00461 µM
CN1CC[C@H](c2c(O)cc(O)c3c(=O)cc(-c4ccccc4Cl)oc23)[C@H](O)C1	0.357 µM
C=CCNC1=C2C[C@@H](C)C[C@H](OC)[C@H](O)[C@@H](C)/C=C(\C)[C@H](OC(N)=O)[C@@H](OC)/C=C\C=C(/C)C(=O)NC(=CC1=O)C2=O	0.113 µM

Continue with the compound presented below.
(Q) Item `S=c1[nH]cnc2nc[nH]c12` has what recorded EC50, CellTiter-Glo?
(A) 0.833 µM

* * *

Quick reference for drug sensitivity score among some compounds
System: HCC1143
experiment.description: drug sensitivity score (DSS), CellTiter-Blue viability (DSS (AUC-based score)); higher = stronger viability inhibition; extreme values may be limits of the assay
condition.details: incubation time: 72 h
The reply should be a number, written without any unit.

compound	drug sensitivity score
Nc1ccn([C@@H]2O[C@H](CO)[C@@H](O)[C@@H]2O)c(=O)n1	6.95
Clc1ccc(C(c2ccccc2Cl)C(Cl)Cl)cc1 (stereo unspecified)	0
N#CC[C@H](C1CCCC1)n1cc(-c2ncnc3[nH]ccc23)cn1	0
OC[C@H]1O[C@@H](n2cnc3c2N=CNC[C@H]3O)C[C@@H]1O	0
CS(=O)(=O)c1ccc(C(=O)Nc2ccc(Cl)c(-c3ccccn3)c2)c(Cl)c1	0

(Q) Item `Nc1nc(Cl)nc2c1ncn2[C@H]1C[C@H](O)[C@@H](CO)O1` has what recorded drug sensitivity score?
(A) 3.82
